Provide the reported solubility kinetic of each item.
- testConditions: buffer; pH 7.4; 200.0 µM

# get_value(readout='solubility kinetic', item= CC(C)c1nc2oc3c(NCCO)ncnc3c2c2c1COC(C)(C)C2 )
48.9 µg/mL

What do we get for COc1ccc(CNc2ncnc3sccc23)cc1 ?
> 40.7 µg/mL

What about CC1CCCCN1Cc1ccc(Cl)nc1 (centres undefined) ?
15.5 µg/mL

Request: O=C(NCC1OCCc2ccccc21)C1COc2ccccc2O1 (centres undefined)
> 48.8 µg/mL

Here is the next molecule: Cc1cccc(C)c1Nc1c(-c2ccccc2O)nc2ncccn12
0.4 µg/mL

What would you report for CC(C)(CC(=O)O)CC(=O)Nc1ccc(Oc2ccc(C(C)(C)C)cc2)nc1 ?
> 57.7 µg/mL

Queued: CCc1ccc(C(C)NC(=S)NC2CCCCC2)cc1 (centres undefined)
11.4 µg/mL

Do the same for COC(=O)c1ccc(COc2ncnc3ccccc23)o1 please
> 42.6 µg/mL

# iterate: Fc1ccc(OCCOCCOc2cccc3[nH]ccc23)cc1
16.3 µg/mL

Also CCCN(CC(=O)Nc1ccccc1C)C(=O)c1cnc(C)cn1 ?
> 49 µg/mL

Entry to check: CC(=O)c1ccc(Oc2ncnc(N)c2[N+](=O)[O-])cc1
2.3 µg/mL

Please do the same for CC(=O)N(C)c1ccc(NC(=O)N2CCOCC2)cc1 as well.
41.5 µg/mL

Would you kindly repeat that for Cc1ccc(NS(=O)(=O)c2ccc3[nH]c(=O)[nH]c3c2)c(C)c1 ?
5 µg/mL

// repeat for Cc1cccc(N2CN=c3s/c(=C\c4ccccn4)c(=O)n3C2)c1 and report
5.3 µg/mL

Then O=C(NCCCc1ccccc1)C1CC1 ?
> 30.5 µg/mL

Okay, and Cc1cc(NC(=O)COC(=O)c2ccccc2Cl)no1 ?
16.3 µg/mL

Here is the next molecule: O=S(=O)(NCc1ccccn1)c1cc(Cl)ccc1Cl
> 47.6 µg/mL

// same read-out, input: CCn1cc(S(=O)(=O)NCCc2ccc(F)cc2)cn1
> 44.6 µg/mL

Same question for COc1ccc(NC(=O)CNCc2ccc(Cl)cc2)cc1S(=O)(=O)N1CCOCC1.O=C(O)C(=O)O please.
> 81.6 µg/mL

Continue with CC(C)(C)c1ccc(Oc2ccc(N)cn2)cc1
> 36.3 µg/mL

Okay, and COc1ccc2c(c1)[nH]c1c(=O)n(CCN3CCOCC3)cnc12 ?
47.6 µg/mL

What would you report for COc1cc2ccccc2cc1C(=O)NC1CCCCC1 ?
25.3 µg/mL

Follow-up item: NC(=O)c1ccc(/C=N/O)[n+](Cc2ccccc2)c1.[Br-]
33.9 µg/mL

// same read-out, input: Cc1ccc(NC(=O)c2cnccn2)nc1
> 32.1 µg/mL

Would you mind doing CC(=O)COc1nc2c(c(-c3ccco3)c1C#N)CCc1ccccc1-2 as well?
1.7 µg/mL

What do we get for Cc1ccc(C)n1-c1cc([N+](=O)[O-])ccc1-n1ccnc1 ?
35.9 µg/mL

// repeat for CCOc1ccc(C(=O)NCC(=O)OCC(=O)N2CCCC2)cc1 and report
> 50.2 µg/mL

Record: CC(=O)Nc1cccc2c1C(=O)N(c1ccccc1OC(C)=O)C2=O
> 50.7 µg/mL

Same question, CCN(Cc1ccccc1)C(=O)c1cc2cc(OC)c(OC)cc2[nH]1 this time
< 0.4 µg/mL

Now this one: CC(Sc1nccn1C)C(=O)c1ccc(Br)cc1 (centres undefined)
42.9 µg/mL

# repeat for CCc1ccccc1NC(=O)CCC(=O)c1cccs1
32.1 µg/mL

What about this molecule? Nc1cc(C(F)(F)F)ccc1N1CCOCC1
36.7 µg/mL

How about Cc1cc(C)cc(OCC(=O)OCC(=O)NC2CC2)c1 ?
> 41.6 µg/mL

Let us now turn to CC(=O)c1c(C)[nH]c(C(=O)COC(=O)c2c(C)noc2C)c1C
5.4 µg/mL

Here is the next molecule: COc1ccc([N+](=O)[O-])cc1NC(=O)CCC(=O)c1cccs1
3.8 µg/mL

Next entry: CC(NC(=O)c1cc2ccccc2o1)c1ccccc1 (centres undefined)
37.6 µg/mL

Next entry: Clc1ccc(N2CCN(Cc3ccco3)CC2)cc1
22.5 µg/mL

Now consider CC(=O)c1c(C)cc(C)c(CSc2ccccn2)c1C and answer again.
20.5 µg/mL

Queued: Cc1cccc(NC(=S)NCc2ccccc2Cl)c1C
< 0.3 µg/mL

Another molecule: CNc1snc(C)c1C(=O)OCC(=O)c1ccc(Cl)cc1
2.6 µg/mL

And the next one, CC[C@@H]1C(=O)OC[C@@H]1Cc1cncn1C.Cl ?
> 36.7 µg/mL

Now this one: CC1CN(C(=O)COC(=O)c2cnc(Cl)c(Cl)c2)CC(C)O1 (centres undefined)
> 52.1 µg/mL

Item: O=c1c(NCCc2ccccc2)c(-c2ccccc2)c1=O
< 0.6 µg/mL

Same thing, different molecule: Br.Nc1nc2c(s1)CCc1ccccc1-2
40.3 µg/mL

Note, next up: Cc1ccc(CC2C(=O)N(c3cc(Cl)ccn3)C(=O)C2C)cc1 (centres undefined)
> 49.3 µg/mL

CCN(CC)C(=O)c1cccc2c1-c1ccccc1C2=O , same question.
41.5 µg/mL

Similarly, CCc1ccc(N2CC(C)Cn3c2nc2c3c(=O)[nH]c(=O)n2C)cc1 (centres undefined) ?
7.3 µg/mL

Continue with O=C(CSc1nc2ccccc2o1)NC1CCCC1
> 41.5 µg/mL

// query: Cc1cccc(-c2nnc(SCC(=O)Nc3cc(C)on3)n2C)c1
> 51.5 µg/mL

====

- testConditions: buffer; pH 7.4; 200.0 µM
# if value of solubility kinetic reaches 20 µg/mL, tag class 1; if it stays below, tag class 0

Please indicate if the recorded solubility kinetic for O=C(Nc1ccc(F)cc1)Nc1ccc2c(c1)OCO2 meets or exceeds 20 µg/mL.
class 0

And what about the compound Cl.c1ccc2c(c1)nc(N1CCCCC1)c1ccccc12 ?
class 0

Note, next up: O=C(NCc1csc2ccc(Cl)cc12)Nc1ccccc1
class 0

Same for Cc1ccc(C(=O)O)cc1NC(=O)C1=CSCCO1
class 1

Do the same for O=C1c2ccccc2C(Nc2ccccc2)N1Cc1ccc2c(c1)OCO2 (stereo not drawn) please
class 0

And the next one, Cl.O=C(c1cc2c(s1)CCCC2)N1CCN(CCO)CC1 ?
class 1

Next compound up: Cc1ccc(N2C(=O)CC(N3CCc4ccccc43)C2=O)cc1Cl (stereo not drawn)
class 0

Follow-up item: COc1ccc(CC(=O)OC(C)C(=O)Nc2c(C)n(C)n(-c3ccccc3)c2=O)cc1OC (stereo not drawn)
class 1

And for CCCCCc1c(O)nc(SCCN(C)C)[nH]c1=O.Cl ?
class 1

Would you kindly repeat that for Cc1nc2ccc(NC(=O)c3ccc4ccccc4n3)cc2s1 ?
class 0

Same lookup for Cc1ccccc1NC(=O)CN1CCN(C(=O)c2ccco2)CC1 , please.
class 1

Another compound to look at: O=[N+]([O-])c1cccc(-c2cnc3ccccc3n2)c1
class 0

Moving on to COc1ccc2cc(C(=O)N(C)Cc3ccccc3)[nH]c2c1
class 0

Now the compound NC(=O)c1ccc[n+]([C@H]2O[C@@H](COP(=O)([O-])OP(=O)(O)OC[C@H]3O[C@@H](n4cnc5c(N)ncnc54)[C@H](O)[C@@H]3O)[C@H](O)[C@@H]2O)c1
class 1

Let us now turn to CN(Cc1nc2ccccc2n1C)c1ccccc1
class 1

Another compound to look at: CCCS(=O)(=O)N1CCCC(C(=O)Oc2ccc(Cl)cc2)C1 (stereo not drawn)
class 0

What do we get for CC(=O)c1cccc(NCC(=O)c2ccc(C)c([N+](=O)[O-])c2)c1 ?
class 0

Now consider O=C(COC(=O)C12CC3CC(CC(Cl)(C3)C1)C2)Nc1ccccc1 .
class 0

# iterate: CC(=O)Nc1ccc(NC(=O)CCOc2ccccc2C)cc1
class 1

Another compound: COC(=O)CC(c1ccc(C(C)C)cc1)n1cccc1 (stereo not drawn)
class 0

Follow-up item: O=C(NCCCNC(=O)c1ccc(F)cc1)c1ccc(F)cc1
class 1

Field entry: CC1(/[N+]([O-])=C/c2ccc(Cl)cc2Cl)CCCCC1=O (stereo not drawn)
class 1

====

- testConditions: buffer; pH 7.4; 200.0 µM
Provide the recorded solubility kinetic for the entries that follow.
Please give a number only; it is taken to be in mg/mL.

Which solubility kinetic value belongs to CC(=O)NC(c1cccc([N+](=O)[O-])c1)c1ccc2cccnc2c1O (stereo unspecified) ?
0.0035

Moving on to the next compound: O=C(COC(=O)c1ccc(Br)o1)NCc1ccc(Cl)cc1
0.0072

Try this compound too: CC(C)C[C@H](NC(=O)NCCC1=CCCCC1)C(=O)O
0.0409

Now give it for COC(=O)c1ccc(CNC(=O)COC(=O)CCC(=O)c2ccc(F)cc2)cc1 too.
0.0055

Here is the next compound: CC1CCCC(NC(=O)COC(=O)c2ccc3c(c2)OCCO3)C1C (stereo unspecified)
0.0053
